- study_target: T1, IL-2Rα-Fc fusion protein (human, UniProt P01589 22-240)
- T1 construct: also called human IL-2Rα (CD25); CD25; not shown: Fc part and any linker are not described; captured on an anti-human IgG Fc sensor
- T1 sequence: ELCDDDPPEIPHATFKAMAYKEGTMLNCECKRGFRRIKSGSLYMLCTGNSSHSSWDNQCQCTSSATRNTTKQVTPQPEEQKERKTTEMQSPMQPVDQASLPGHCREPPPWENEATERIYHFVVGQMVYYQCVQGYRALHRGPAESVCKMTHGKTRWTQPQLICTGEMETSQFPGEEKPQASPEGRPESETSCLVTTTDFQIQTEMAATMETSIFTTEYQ
- experiment: BLI (Octet RED96), IL-2Rα-Fc on AHC biosensor
observation_type: binding result

binder	observation_type	result
hIL-2-anti-HSA A37 (ligand, fused to anti-HSA VHH; also called IL2 mutein (K32E, F42A, C125S)) APTSSSTKKTQLQLEHLLLDLQMILNGINNYENPKLTRMLTAKFYMPKKATELKHLQCLEEELKPLEEVLNLAQSKNFHLRPRDLISNINVIVLELKGSETTFMCEYADETATIVEFLNRWITFSQSIISTLTGSGGSGGSGGSGEVQLVESGGGLVQPGGSLRLSCAASGSTWSINTLAWYRQAPGKQRDLVARISSGGSTYYADSVKGRFTISRDNSKNTLYLQMNSLRAEDTAVYYCYAQSTWYPPSWGQGTLVTVSS	binding result	no binding
hIL-2-anti-HSA A50 (ligand, fused to anti-HSA VHH; also called hIL-2 mutein (K32E, Y45C, E62C, C125S)) APTSSSTKKTQLQLEHLLLDLQMILNGINNYENPKLTRMLTFKFCMPKKATELKHLQCLEECLKPLEEVLNLAQSKNFHLRPRDLISNINVIVLELKGSETTFMCEYADETATIVEFLNRWITFSQSIISTLTGSGGSGGSGGSGEVQLVESGGGLVQPGGSLRLSCAASGSTWSINTLAWYRQAPGKQRDLVARISSGGSTYYADSVKGRFTISRDNSKNTLYLQMNSLRAEDTAVYYCYAQSTWYPPSWGQGTLVTVSS	binding result	no binding
hIL-2-anti-HSA A56 (ligand, fused to anti-HSA VHH; also called IL-2-IL-15 chimera 3) APTSSSTKKTQLQLEHLLLDLQMILNGIQSMEIDATKFYMPKKATELKHLQCLEEELKPLEEVLNLAQSKNFHLRPRDLISNINVIVLELKGSETTFMCEYADETATIVEFLNRWITFSQSIISTLTGSGGSGGSGGSGEVQLVESGGGLVQPGGSLRLSCAASGSTWSINTLAWYRQAPGKQRDLVARISSGGSTYYADSVKGRFTISRDNSKNTLYLQMNSLRAEDTAVYYCYAQSTWYPPSWGQGTLVTVSS	binding result	no binding
hIL-2-anti-HSA A40 (ligand, fused to anti-HSA VHH; also called IL2 mutein (K32E, R38G, F42A, C125S)) APTSSSTKKTQLQLEHLLLDLQMILNGINNYENPKLTGMLTAKFYMPKKATELKHLQCLEEELKPLEEVLNLAQSKNFHLRPRDLISNINVIVLELKGSETTFMCEYADETATIVEFLNRWITFSQSIISTLTGSGGSGGSGGSGEVQLVESGGGLVQPGGSLRLSCAASGSTWSINTLAWYRQAPGKQRDLVARISSGGSTYYADSVKGRFTISRDNSKNTLYLQMNSLRAEDTAVYYCYAQSTWYPPSWGQGTLVTVSS	binding result	no binding

We now examine a further binder.
According to the records, this binder hIL-2-anti-HSA A52 (ligand, fused to anti-HSA VHH; also called hIL-2 mutein (F42C, V69C, C125S)) APTSSSTKKTQLQLEHLLLDLQMILNGINNYKNPKLTRMLTCKFYMPKKATELKHLQCLEEELKPLEECLNLAQSKNFHLRPRDLISNINVIVLELKGSETTFMCEYADETATIVEFLNRWITFSQSIISTLTGSGGSGGSGGSGEVQLVESGGGLVQPGGSLRLSCAASGSTWSINTLAWYRQAPGKQRDLVARISSGGSTYYADSVKGRFTISRDNSKNTLYLQMNSLRAEDTAVYYCYAQSTWYPPSWGQGTLVTVSS displays binding result of no binding
